Tested on: MS2 coat protein
Procedure Details: apparent KD of MS2 coat protein; designed switch direction (-1 OFF switch, 1 ON switch): -1; higher = weaker reporter binding
Reported Conditions: input ligand: none
Classify as follows. Reported apparent KD of MS2 coat protein greater than or equal to 30 nM: YES. Reported apparent KD of MS2 coat protein below: NO.

UUUUACAAGCUAAGAUCCUACAUGAGGAUCACCCAUGUGGUCCGGUGACGUGAGUCACCGGACUUAGCUCGUCUUGU [JL TOV1 3.70] (Eterna round: R97, puzzle: Sensor, turn-off variant 1)    YES

[in] Kindly determine if apparent KD of MS2 coat protein recorded for GCACAUGAGGAUCACCCAUGUCAAUGGGAAUUCCUUCUUCAACAGGAUAUCCGAUGGAGAACGUCGGAGAAGGGUUCGCCAGUA [Eternabot solution 15] (Eterna round: R96, puzzle: Exclusion NG 3) is above or exactly 30 nM.
[out] NO

[in] Now the same for UUUAAUUUAAUUAAGAUCACAUGAGGAUCACCCAUGUAAUUAUAGGAUAUCAGCUCGAUUAGAGCUGAGAAGGAUAAUUACAUA [ExNG3/5-A1] (Eterna round: R96, puzzle: Exclusion NG 3)
[out] YES

meta.source: the supplement of paper PMC9170038
